Value source: patent EP4585616A1

Biological target: T1, Extracellular domain of human ROR1 protein (ROR1-ECD) (human, UniProt Q01973 30-403)
T1 construct: Expressed in HEK293T cells; also called human ROR1-ECD; purified human ROR1 protein extracellular segment
T1 sequence (Q01973 other isoform, or with tags, fused parts or gaps): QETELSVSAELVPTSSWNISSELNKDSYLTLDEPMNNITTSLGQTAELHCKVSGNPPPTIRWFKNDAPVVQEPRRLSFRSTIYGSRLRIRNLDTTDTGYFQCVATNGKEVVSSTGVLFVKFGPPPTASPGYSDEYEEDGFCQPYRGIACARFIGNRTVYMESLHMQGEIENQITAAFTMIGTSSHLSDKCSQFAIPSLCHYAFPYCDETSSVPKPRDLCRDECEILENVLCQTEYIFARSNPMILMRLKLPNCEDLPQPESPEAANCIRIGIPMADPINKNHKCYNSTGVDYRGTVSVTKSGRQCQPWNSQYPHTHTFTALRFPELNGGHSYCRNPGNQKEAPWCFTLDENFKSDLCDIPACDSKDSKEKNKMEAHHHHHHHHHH
Experiment: ELISA, plate-coated ROR1-ECD
REPORTED_METRIC: binding result

Illustrative cases are given below, each with its answer.
>>> assay_result("Hu001-05 (antibody, V domains shown, Humanized; also called Hu001-5) VH: QVQLVQSGAEVKKPGASVKVSCKASGYTFTDYNLHWVRQAPGQGLEWMGYINPNHDATSYNQKFQGKVTMTVDTSTSTVYMELSSLRSEDTAVYYCARRVRTGTGLDDWGQGTTVTVSS VL: DVVMTQSPLSLPVTLGQPASISCRSSHNIVHTNANTYLEWYQQRPGQSPRLLIYKVSNRFSGVPDRFSGSGSGTDFTLKISRVEAEDVGVYYCFQGSRFPYTFGGGTKVEIK")
"binds"
>>> assay_result("Hu001-2-MMAE (antibody, human IgG1, DAR about 4.15, V domains shown, vcMMAE on cysteines after TCEP reduction, positions not given, Antibody-drug conjugate of Hu001-2 (human IgG1, Kappa) with vcMMAE) VH: QVQLVQSGAEVKKPGASVKVSCKASGYTFTDYNLHWVRQAPGQGLEWMGYINPNHDATSYNQKFQGRVTMTRDTSTSTVYMELSSLRSEDTAVYYCARRVRTGTGLDDWGQGTTVTVSS VL: DVVMTQSPLSLPVTLGQPASISCRSSHNIVHTNANTYLEWYQQRPGQSPRLLIYKVSNRFSGVPDRFSGSGSGTDFTLKISRVEAEDVGVYYCFQGSRFPYTFGGGTKVEIK")
"binds"
>>> assay_result("Hu005-41 (antibody, V domains shown, Humanized) VH: EVQLVESGGGLVKPGGSLRLSCAASGFTFNSYAMSWVRQTPGKRLEWVATISDAGSYTYYPDNEKGRFTISRDNAKNNLYLQMNSLRAEDTAIYYCVRGGYYYNLYAMDYWGQGTLVTVSS VL: DIVLTQSPDSLAVSLGERATINCKASQSVSFPGTSLMHWYQQKPGQQPKLLIYRASNLEAGVPDRFSGSGSRTDFTLTISSLQAEDVAVYYCQQSREYPWTFGGGTKVEIK")
"binds"
>>> assay_result("Hu005-46-MMAE (antibody, human IgG1, DAR about 4.07, V domains shown, vcMMAE on cysteines after TCEP reduction, positions not given, Antibody-drug conjugate of Hu005-46 (human IgG1, Kappa) with vcMMAE) VH: EVQLVESGGGLVKPGGSLRLSCAASGFTFNSYAMSWVRQTPGKRLEWVATISDAGSYTYYPDNEKGRFTISRDNAKNSLYLQMNSLRAEDTAIYYCVRGGYYYNLYAMDYWGQGTLVTVSS VL: DIVLTQSPDSLAVSLGERATINCKASQSVSFPGTSLMHWYQQKPGQQPKLLIYRASNLEAGVPDRFSGSGSRTDFTLTISSLQAEDVAVYYCQQSREYPWTFGGGTKVEIK")
"binds"

Quick one: binding result of Hu005-45 (antibody, V domains shown, Humanized) VH: EVQLVESGGGLVKPGGSLRLSCAASGFTFNSYAMSWVRQTPEKGLEWVATISDAGSYTYYPDNEKGRFTISRDNAKNSLYLQMNSLRAEDTAIYYCVRGGYYYNLYAMDYWGQGTLVTVSS VL: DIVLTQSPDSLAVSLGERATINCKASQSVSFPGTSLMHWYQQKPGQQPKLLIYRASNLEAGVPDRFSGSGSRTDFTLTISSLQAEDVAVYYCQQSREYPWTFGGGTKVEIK ?
binds
